# Organism: Cavia porcellus
# Test details: In vitro effective concentration required to elicit half-maximal contractile response in guinea pig ileum.
Observation type: pEC50
Notebook: values listed as pEC50 are -log10 of the concentration (mol/L).

In: Give its pEC50 value. Item: C[N+](C)(C)CCOC(N)=O.[Cl-]
Out: 7.00

----------
# Organism: Cavia porcellus
# Test details: Maximum contractile response relative to that elicited by carbachol in guinea pig ileum
# Assay type: functional
Quick reference for Emax among some molecules
Answer using only a numeral; do not append any unit.

In: Give its Emax value. Item: CC(=O)N1C(=O)CCC1C#CC[N+](C)(C)C.[I-] (stereo not drawn)
Out: 0.78

In: Give its Emax value. Item: CC(=O)N1C(=O)CCC1C#CCN(C)C (stereo not drawn)
Out: 0
